# credit: ChEMBL document CHEMBL1145622

- experiment-description: Half life in rat at 1.2 mg/kg, iv and 2.2 mg/kg, po
- Type: ADME, organism-based
- assay-context: in vivo
outcome-measure: half-life

Quick one: give measured half-life for CN(CC(=O)N1CCC[C@H](c2ccccc2)[C@@H]1CN1CCCC1)c1ccc(Cl)c(Cl)c1 (stereo in doubt; 10b)
3.8 h

###

- experiment-description: Volume of distribution at steady state in rat at 1.2 mg/kg, iv and 2.2 mg/kg, po
- Assay type: ADME, organism-based
- assay-context: in vivo, read-out: Vdss
outcome-measure: Vd (L/kg)
Give a bare numeral; the unit L/kg is implied.

Quick one: give measured Vd for CN(CC(=O)N1CCC[C@H](c2ccccc2)[C@@H]1CN1CCCC1)c1ccc(Cl)c(Cl)c1 (stereo in doubt; 10b)
23
